# protocol_description: Chemical stability in saline phosphate buffer
# Type: physicochemical
# experimental_parameters: phosphate buffered saline (PBS), pH 7.4
Listed here are compounds together with their documented remaining at 24 h, 50 µM.
Kindly provide the numeric value in % only, without the unit symbol.

>  <compound_smiles>
C[C@@H]1C[C@H]2[C@@H]3CCC4=CC(=O)C=C[C@]4(C)[C@@]3(F)[C@@H](O)C[C@]2(C)[C@@]1(O)C(=O)COC(=O)CCC(=O)Oc1ccc(-c2cc(=S)ss2)cc1

>  <remaining at 24 h, 50 µM / %>
99

$$$$
>  <compound_smiles>
C[C@]12C=CC(=O)C=C1CC[C@@H]1[C@@H]2C(=O)C[C@@]2(C)[C@H]1CC[C@]2(O)C(=O)COC(=O)CCC(=O)Oc1ccc(-c2cc(=S)ss2)cc1

>  <remaining at 24 h, 50 µM / %>
99

$$$$

Now, please, on to the next compound.
Problem: So what's the measured remaining at 24 h, 50 µM for this one? C[C@]12C=CC(=O)C=C1CC[C@@H]1[C@@H]2C(=O)C[C@@]2(C)[C@H]1CC[C@]2(O)C(=O)COC(=O)CCC(=O)Oc1ccc(C(N)=S)cc1
Result: 97

###

# protocol_description: Chemical stability in simulated gastric fluid
# Type: physicochemical
# experimental_parameters: simulated gastric fluid (SGF) without pepsin, pH 1.2
Listed here are molecules together with their documented remaining at 24 h, 50 µM.
Answer format reminder: number followed by unit.

Some solved cases for reference:
>  <molecule>
C[C@@H]1C[C@H]2[C@@H]3CCC4=CC(=O)C=C[C@]4(C)[C@@]3(F)[C@@H](O)C[C@]2(C)[C@@]1(O)C(=O)COC(=O)CCC(=O)Oc1ccc(-c2cc(=S)ss2)cc1 [Compound 6]

>  <remaining at 24 h, 50 µM>
99%

$$$$
>  <molecule>
C[C@]12C=CC(=O)C=C1CC[C@@H]1[C@@H]2C(=O)C[C@@]2(C)[C@H]1CC[C@]2(O)C(=O)COC(=O)CCC(=O)Oc1ccc(C(N)=S)cc1 [Compound 7]

>  <remaining at 24 h, 50 µM>
99%

$$$$

Now, please, on to the next molecule.
Problem: So what's the measured remaining at 24 h, 50 µM for this one? C[C@]12C=CC(=O)C=C1CC[C@@H]1[C@@H]2C(=O)C[C@@]2(C)[C@H]1CC[C@]2(O)C(=O)COC(=O)CCC(=O)Oc1ccc(-c2cc(=S)ss2)cc1 [Compound 8]
Result: 99%

###

# protocol_description: Enzymatic stability in human serum
# Format: in vitro ADME
readout: half-life at 100 µM (min)
Kindly provide the numeric value in min only, without the unit symbol.

Problem: So what's the measured half-life at 100 µM for this one? C[C@]12C=CC(=O)C=C1CC[C@@H]1[C@@H]2C(=O)C[C@@]2(C)[C@H]1CC[C@]2(O)C(=O)COC(=O)CCC(=O)Oc1ccc(C(N)=S)cc1
Result: 15

Problem: Same question for C[C@]12C=CC(=O)C=C1CC[C@@H]1[C@@H]2C(=O)C[C@@]2(C)[C@H]1CC[C@]2(O)C(=O)COC(=O)CCC(=O)Oc1ccc(-c2cc(=S)ss2)cc1 please.
Result: 9

Problem: Same question for C[C@@H]1C[C@H]2[C@@H]3CCC4=CC(=O)C=C[C@]4(C)[C@@]3(F)[C@@H](O)C[C@]2(C)[C@@]1(O)C(=O)COC(=O)CCC(=O)Oc1ccc(-c2cc(=S)ss2)cc1 please.
Result: 10
